Reported protein stability index values are given for each entry in this list.
B1: ANKRD17 (parent)
chain: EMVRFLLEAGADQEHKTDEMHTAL

Variants of: B1
Assay Notes: protein stability index of a GFP-peptide fusion (GPS, HEK-293T) (PSI 1-6); higher = more stable;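 note: lentivirally expressed fusions sorted by FACS into six bins by GFP to DsRed ratio, PSI derived from sequencing read proportions per bin multiplied by bin number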
Setup Conditions: c terminus: a fixed tail appended
Simply state the number, no unit and no words.

Request: // query protein stability index value for entry K16N
Result: 3.29

Request: Param item: A11V
Result: 2.94

***
Request: // query protein stability index value for entry D18N
Result: 2.51

Request: Param item: M2P
Result: 4.75

Request: Param item: E1H
Result: 2.75

Request: Param item: A23K
Result: 2.76

Request: Param item: F5C
Result: 3.77

Request: Param item: E14D
Result: 2.61

Request: Param item: E19H
Result: 2.22

Request: Param item: A9I
Result: 1.98

Request: Param item: T17R
Result: 2.68
